Procedure Text: Bi-directional permeability assay with Caco-2 cells
Reported Conditions: human, Caco-2
Here the recorded efflux ratio at 2 h, 10 μM is given for each entry.
Lab note: jot down the number only; don't add units.

Compound	Recorded Measurement
C[n+]1cccc2ccc(N)cc21	1.52
C[n+]1cccc2c(N)cccc21 [1j, 5-amino-1-methylquinolin-1-ium iodide]	1.33

Turning to the following compound.
Please look at this compound and report its efflux ratio at 2 h, 10 μM: C[n+]1c(N)c(N)cc2ccccc21
4.03
